DETAILS: male, CF-1, mouse, 1 µM, pH 7.4
READOUT NAME: Pgp Mutant Kin (mL/100g/min)
Write the number in mL/100g/min without appending the unit.

Challenge: Which value of Pgp Mutant Kin has been reported for `CN(C)CCC=C1c2ccccc2CCc2ccccc21` in the records?
Response given: 408

Challenge: `CN(C)CCCN1c2ccccc2Sc2ccc(Cl)cc21` ?
Response given: 295

Challenge: Let us now turn to `COc1ccc(CCN2CCC(Nc3nc4ccccc4n3Cc3ccc(F)cc3)CC2)cc1`
Response given: 123

Challenge: Further, for NC(=O)N1c2ccccc2C=Cc2ccccc21 [carbamazepine] ?
Response given: 184

Challenge: Lookup `O=C1CC2(CCCC2)CC(=O)N1CCCCN1CCN(c2ncccn2)CC1`
Response given: 341

Challenge: Can you handle CC(C)(C)c1ccc(C(O)CCCN2CCC(C(O)(c3ccccc3)c3ccccc3)CC2)cc1 (stereo not drawn) next?
Response given: 129

Challenge: Moving on to the next compound: `CN1CCN(C2=Nc3cc(Cl)ccc3Nc3ccccc32)CC1`
Response given: 90

Challenge: Also, `CC(C)(C)NC(=O)[C@@H]1C[C@@H]2CCCC[C@@H]2CN1C[C@@H](O)[C@H](Cc1ccccc1)NC(=O)[C@H](CC(N)=O)NC(=O)c1ccc2ccccc2n1` please.
Response given: 11

Challenge: Lookup `CCCN(CCC)S(=O)(=O)c1ccc(C(=O)O)cc1`
Response given: 0.098

Numbers sourced from paper PMC2747801.
